- studySystem: human Cot catalytic domain (30-397 amino acids) (Homo sapiens, UniProt P41279)
- Construct: Purified recombinant human Cot catalytic domain (30-397 amino acids) was purchased from Cama Biosciences; purchased Cama Biosciences (so in the source)
- Sequence (P41279 30-397): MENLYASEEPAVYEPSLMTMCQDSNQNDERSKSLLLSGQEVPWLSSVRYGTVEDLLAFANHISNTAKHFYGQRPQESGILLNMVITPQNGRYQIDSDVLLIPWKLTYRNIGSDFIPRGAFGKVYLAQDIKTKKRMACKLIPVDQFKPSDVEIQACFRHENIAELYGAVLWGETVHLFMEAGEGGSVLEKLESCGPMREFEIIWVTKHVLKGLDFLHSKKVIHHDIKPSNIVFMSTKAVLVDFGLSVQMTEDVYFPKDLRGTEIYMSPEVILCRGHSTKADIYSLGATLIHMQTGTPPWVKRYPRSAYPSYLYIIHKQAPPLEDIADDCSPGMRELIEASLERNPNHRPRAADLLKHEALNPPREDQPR
- procedureDetails: High Throughput Cot Biochemical Assay (KinEASE TR-FRET)
- measurementConditions: Cot biochemical HTRF (KinEASE TR-FRET) assay; read-out: IC50 HTRF
attributeMeasured: pIC50
# pIC50 is unitless: minus log10 of the molar concentration; print number only

Q) For the compound `CC(C)(C)N1CCC(n2cc([C@@H](Nc3cc(F)c4ncc(C#N)c(Nc5ccc(F)c(Cl)c5)c4c3)c3ccc(Cl)cc3)nn2)CC1` , give its measured pIC50 value.
A) 7.74

Q) # return recorded pIC50 for entry `N#Cc1cnc2c(Cl)cc(N[C@@H](c3ccc(Cl)cc3)c3cn(C4CCN(C5COC5)CC4)nn3)cc2c1Nc1ccc(F)c(Cl)c1`
A) 7.11

Q) Dear colleague, please send me the reported pIC50 for `[2H][C@](Nc1cc(Cl)c2ncc(C#N)c(N[C@H](CC)c3ccccc3)c2c1)(c1ccc(F)cc1)c1c[nH]nn1` when you can.
A) 8.05

Q) Return value of pIC50 for input `CC(C)(C)N1CCC(n2cc([C@@H](Nc3cc(Cl)c4ncc(C#N)c(NCc5ccccc5F)c4c3)c3ccccc3)nn2)CC1` , no commentary.
A) 7.28

Q) # return recorded pIC50 for entry `CC(C)(C)C(=O)c1cccc([C@H](Nc2cc(Cl)c3ncc(C#N)c(Nc4ccc(F)c(Cl)c4)c3c2)c2cn(C3CCN(C(C)(C)C)CC3)nn2)c1`
A) 8.00

Q) Supply pIC50 value. Item: `CC(C)(C)N1CCC(n2cc([C@@H](Nc3cc(Cl)c4ncc(C#N)c(Nc5ccc(OCc6ccccn6)c(Cl)c5)c4c3)c3ccccc3)nn2)CC1`
A) 6.76

###

- studySystem: human Cot catalytic domain (30-397 amino acids) (Homo sapiens)
- Construct: Purified recombinant human Cot catalytic domain (30-397 amino acids) was purchased from Cama Biosciences; purchased Cama Biosciences (so in the source)
- procedureDetails: High Throughput Cot Biochemical Assay (KinEASE TR-FRET)
- measurementConditions: Cot KinEASE TR-FRET, 400 μM ATP; read-out: IC50 HTRF
- Text: Example 61: High Throughput Cot Biochemical Assay In this assay, Cot-catalyzes the phosphorylation of a XL665-labeled peptide substrate. Europium conjugated phospho-tyrosine specific antibody binds the resulting phosphorylated peptide. […] Purified recombinant human Cot catalytic domain (30-397 amino acids) was purchased from Cama Biosciences. […]
Hi there, I'd appreciate the recorded IC50 for every entry that follows.
All answers are understood in nM, so give the number only.

Q) Specify IC50 for Cc1c([C@H](Nc2cc(C#N)c3ncc(C#N)c(NCC(C)(C)C)c3c2)c2cn(C3(C(F)F)CC3)nn2)cccc1-n1cnnc1 [Example 1073] , system human Cot catalytic domain (30-397 amino acids) (Homo sapiens).
A) 1

Q) Answer with IC50 of CCOC(=O)c1cccc([C@H](Nc2cc(Cl)c3ncc(C#N)c(NCC(C)(C)C)c3c2)c2cn(C3(C(F)(F)F)CC3)nn2)c1F [Example 1087] measured for human Cot catalytic domain (30-397 amino acids) (Homo sapiens).
A) 22

Q) Provide the reported IC50 (system: human Cot catalytic domain (30-397 amino acids) (Homo sapiens)) for Cc1c(-c2cn[nH]c2)cccc1[C@H](Nc1cc(Cl)c2ncc(C#N)c(NCC(C)(C)C)c2c1)c1cn(C2(C(F)F)CC2)nn1 [Example 1166]
A) 5

Q) Report measured IC50 on human Cot catalytic domain (30-397 amino acids) (Homo sapiens); entry: Cc1c([C@H](Nc2cc(C#N)c3ncc(C#N)c(NCC(C)(C)C)c3c2)c2cn(C3(C(F)(F)F)CC3)nn2)cccc1-n1cnnn1 [Example 1081]
A) 3

Q) Provide human Cot catalytic domain (30-397 amino acids) (Homo sapiens) IC50 reading for CC(C)(C)CNc1c(C#N)cnc2c(Cl)cc(N[C@@H](c3ccccc3)c3cn(C(F)(F)C(N)=O)nn3)cc12 [Example 970] .
A) 8

Q) Provide IC50, tested on human Cot catalytic domain (30-397 amino acids) (Homo sapiens), for CC(C)(C)N1CCC(n2cc([C@@H](Nc3ccc4nc(N)c(C#N)c(Nc5ccc(F)c(Cl)c5)c4c3)c3ccc(Cl)cc3)nn2)CC1 [Example 760] .
A) 2340
